Here, each record is paired with measured viability at 48 h, 0.1 µM data.
# Assay comment: Cytotoxicity test (MTT), U937
# Type: cell-based
# Recorded conditions: human, U937 cells (monocytic blood cancer-derived cell line); U937, 48 h, 0.1 μM; read-out: Cell viability (% of control)
Property measured: viability at 48 h, 0.1 µM (%)

1) CCCNC(=O)Nc1nc(C)c(O)c(C)c1C :: 88.4
2) CCCCOC(=O)Nc1nc(C)c(O)c(C)c1C :: 84.4
3) Cc1nc(NS(=O)(=O)c2ccc(C(F)(F)F)cc2)c(C)c(C)c1O :: 93
4) Cc1nc(NC(=O)Nc2ccc(Cl)cc2)c(C)c(C)c1O :: 89.7
5) O=c1[nH]cc(F)c(=O)[nH]1 [5-Fluorouracil, reference compound] :: 89.8
6) Cc1nc(NC(=O)NS(=O)(=O)c2ccccc2)c(C)c(C)c1O :: 94.3
7) Cc1ccc(S(=O)(=O)Nc2nc(C)c(O)c(C)c2C)cc1 :: 94.5
8) Cc1nc(NS(=O)(=O)c2ccc([N+](=O)[O-])cc2)c(C)c(C)c1O :: 93.3
9) Cc1nc(NC(=S)NC(C)C)c(C)c(C)c1O :: 99.4
10) Cc1nc(NC(=O)Nc2cccc3ccccc23)c(C)c(C)c1O :: 85.4
11) CCCCNC(=S)Nc1nc(C)c(O)c(C)c1C :: 94.9
12) Cc1cccc(C(C)(C)C)c1NC(=O)Nc1nc(C)c(O)c(C)c1C :: 91.2
13) COC(=O)Nc1nc(C)c(O)c(C)c1C :: 95.1
14) Cc1nc(NC(=O)OCC(C)C)c(C)c(C)c1O :: 86.3
15) Cc1nc(NC(=O)OCCCl)c(C)c(C)c1O :: 82.7
